Reference for the values: paper PMC10350917

procedure details: physchem
test parameters: buffer, pH 7.4
experimental readout: half-life (h)
Your answer is read as h, so omit the unit and give the number.

INSERT INTO results (smiles_code, value) VALUES
  ('Nc1nnc(SCC(=O)N[C@@H](Cn2cc(C(=O)O)nn2)B(O)O)s1', 33);

[in] For the compound O=C(Cc1cccs1)N[C@@H](Cn1cc(C(=O)O)nn1)B(O)O , give its measured half-life value.
[out] 8

###

Measured pKi (ADC-30 (Acinetobacter baumannii, UniProt A7XM81))
Convention used: pKi is expressed as -log10 of the molar concentration.

INSERT INTO results (smiles_code, value) VALUES
  ('Nc1nnc(SCC(=O)N[C@@H](Cn2cc(C(=O)O)nn2)B(O)O)s1', 7.24);

From here, focus on the item given below.
[in] Provide one value: measured pKi of O=C(Cc1cccs1)N[C@@H](Cn1cc(C(=O)O)nn1)B(O)O
[out] 7.55

###

Listed here are molecules together with their documented half-life at 2.5 μM.
procedure details: in vitro
test parameters: human, plasma, pH 7.4
Protocol: The in vitro stability of MB076 and S02030 was evaluated by incubating the compounds in both buffer (pH 7.4) and human plasma at 37 °C over 48 h. Half-lives (t1/2) were then calculated for each compound. Plasma and buffer stability samples were analyzed by monitoring the disappearance of the compounds using high-performance liquid chromatography-mass spectrometry (LC–MS) techniques. […]
Could you give me the number in min? Just the number is fine.

INSERT INTO results (molecule, endpoint_unit, value) VALUES
  ('O=C(Cc1cccs1)N[C@@H](Cn1cc(C(=O)O)nn1)B(O)O [S02030]', 'min', 540);

[in] For the molecule Nc1nnc(SCC(=O)N[C@@H](Cn2cc(C(=O)O)nn2)B(O)O)s1 [MB076] , give its reported half-life at 2.5 μM.
[out] 1740

###

assay target: ADC variants
procedure details: Inhibition kinetics, statement for all ADC variants
Format: biochemical, Acinetobacter baumannii
test parameters: bound stated for all ADC variants of the study
Recorded measurements of Ki, one per entry

INSERT INTO assay_data (smiles_code, value) VALUES
  ('O=C(Cc1cccs1)N[C@@H](Cn1cc(C(=O)O)nn1)B(O)O', '< 1 µM');

[in] Consider the compound Nc1nnc(SCC(=O)N[C@@H](Cn2cc(C(=O)O)nn2)B(O)O)s1 . State its measured Ki.
[out] < 1 µM

###

We begin with a simple list: items and their reported Ki.
assay target: ADC-33 (Acinetobacter baumannii, UniProt A7Y407)

INSERT INTO measurements (smiles_code, value) VALUES
  ('O=C(Cc1cccs1)N[C@@H](Cn1cc(C(=O)O)nn1)B(O)O', '110 nM');

// next entry
[in] Jot down Ki (ADC-33 (Acinetobacter baumannii, UniProt A7Y407)) of Nc1nnc(SCC(=O)N[C@@H](Cn2cc(C(=O)O)nn2)B(O)O)s1 .
[out] 100 nM

###

Tested on: ADC-212 in pBCSK(−) E. coli DH10B
procedure details: Broth microdilution AST, ADC-212
Type: cell-based
test parameters: Escherichia coli, E. coli DH10B ADC-212, MB076 fixed at 10 mg/L in combinations, FDC in iron-depleted broth
Threshold 100 µg/mL: MIC strictly smaller gives class 1, otherwise class 0.

INSERT INTO assay_data (molecule, class_label) VALUES
  ('CC(C)(O/N=C(\C(=O)N[C@@H]1C(=O)N2C(C(=O)[O-])=C(C[N+]3(CCNC(=O)c4ccc(O)c(O)c4Cl)CCCC3)CS[C@H]12)c1csc(N)n1)C(=O)O [cefiderocol]', 'class 1'),
  ('CC(C)(O/N=C(\C(=O)N[C@@H]1C(=O)N2C(C(=O)[O-])=C(C[n+]3ccccc3)CS[C@H]12)c1csc(N)n1)C(=O)O [ceftazidime]', 'class 0'),
  ('CO/N=C(\C(=O)N[C@@H]1C(=O)N2C(C(=O)O)=C(COC(C)=O)CS[C@H]12)c1csc(N)n1 [cefotaxime]', 'class 0'),
  ('CO/N=C(\C(=O)N[C@@H]1C(=O)N2C(C(=O)[O-])=C(C[N+]3(C)CCCC3)CS[C@H]12)c1csc(N)n1 [cefepime]', 'class 1');

API: the following record is the query input.
[in] Field: below-cutoff. Rule: recorded MIC strictly less than 100 µg/mL. Subject: Cn1c(N)c(NC(=O)NCCN)c[n+]1CC1=C(C(=O)O)N2C(=O)[C@@H](NC(=O)/C(=N\OC(C)(C)C(=O)[O-])c3nsc(N)n3)[C@H]2SC1 [ceftolozane]
[out] class 0

###

System: ADC-30 in pBCSK(−) E. coli DH10B
procedure details: Broth microdilution AST, ADC-30
Type: cell-based
test parameters: Escherichia coli, E. coli DH10B ADC-30, MB076 fixed at 10 mg/L in combinations, FDC in iron-depleted broth
This section presents compounds with their documented MIC values.
Only the number, expressed in µg/mL, is required.

Answered cases to consult:
INSERT INTO results (compound, value) VALUES
  ('CC(C)(O/N=C(\C(=O)N[C@@H]1C(=O)N2C(C(=O)[O-])=C(C[n+]3ccccc3)CS[C@H]12)c1csc(N)n1)C(=O)O', 128),
  ('CO/N=C(\C(=O)N[C@@H]1C(=O)N2C(C(=O)[O-])=C(C[N+]3(C)CCCC3)CS[C@H]12)c1csc(N)n1 [cefepime]', 0.25),
  ('Cn1c(N)c(NC(=O)NCCN)c[n+]1CC1=C(C(=O)O)N2C(=O)[C@@H](NC(=O)/C(=N\OC(C)(C)C(=O)[O-])c3nsc(N)n3)[C@H]2SC1', 8),
  ('CC(C)(O/N=C(\C(=O)N[C@@H]1C(=O)N2C(C(=O)[O-])=C(C[N+]3(CCNC(=O)c4ccc(O)c(O)c4Cl)CCCC3)CS[C@H]12)c1csc(N)n1)C(=O)O', 0.5);

Pending compound:
[in] Provide MIC value for the following compound: CO/N=C(\C(=O)N[C@@H]1C(=O)N2C(C(=O)O)=C(COC(C)=O)CS[C@H]12)c1csc(N)n1
[out] 64
